Source: ChEMBL document CHEMBL3400110

test: Protein binding in human plasma; type: ADME, cell-free; settings: read-out: PPB (converted)
Recorded metric: fraction unbound

Structure smiles	Test value
CC(C)[C@]1(C)CC(=O)N(Cc2cc(F)cc(C(=O)N[C@@H](C)c3ccccc3)c2)C(=N)N1	0.058

----------
Target: Cathepsin E (Homo sapiens)
Sequence (P14091 whole entry): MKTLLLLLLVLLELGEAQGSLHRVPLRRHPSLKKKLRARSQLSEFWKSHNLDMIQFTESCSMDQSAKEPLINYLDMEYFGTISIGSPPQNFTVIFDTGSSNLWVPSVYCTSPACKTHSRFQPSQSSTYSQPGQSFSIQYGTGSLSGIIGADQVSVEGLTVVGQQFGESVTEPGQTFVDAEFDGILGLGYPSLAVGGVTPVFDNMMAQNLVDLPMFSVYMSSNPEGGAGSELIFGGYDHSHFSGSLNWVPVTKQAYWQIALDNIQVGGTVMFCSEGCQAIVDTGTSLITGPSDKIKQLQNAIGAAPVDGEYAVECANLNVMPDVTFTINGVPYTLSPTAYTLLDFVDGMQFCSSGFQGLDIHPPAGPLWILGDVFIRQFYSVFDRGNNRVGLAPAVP
pKi: −log10 of the molar value.

Structure smiles	pKi
CC(C)[C@]1(C)CC(=O)N(Cc2cc(F)cc(C(=O)N[C@@H](C)c3ccccc3)c2)C(=N)N1	5.96
